assay: chemical genetic growth profiling, strain panel (AID 1159580);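 note: tested at 20 µM; growth read once vehicle control cultures reached saturation at 30 °C; 1 = growth at the plate median or of vehicle wells; lower values mean less growth of the strain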; settings: S. cerevisiae deletion strains, growth OD, locus YDL185W, strain tfp1, hits give low values
Among all 5,500 compounds or so, about 2,000 (36%) were called active. About 18% were inconclusive and are not listed. The list shows a part of the results.
measured_parameter: normalized growth
Respond numerically, and do not add a unit to the figure.

Recorded normalized growth, per entry:
CC1(C)C(=O)[C@@H]2O[C@@H]2[C@@]2(C)C1C[C@@H](O)[C@]1(C)C2CC[C@@]2(C)[C@H](c3ccoc3)OC(=O)C3OC321 (stereo partly drawn) | 0.997
CC(=O)OC1CC(OC(C)=O)C2(C)C(CC(OC(C)=O)C3(C)C2CCC2(C)C(c4ccoc4)OC(=O)C4OC423)C1(C)C (stereo not drawn) | 0.986

Next:
Prompt line: Fill in reported normalized growth for this entry: CC(=O)O[C@H]1C[C@@H](OC(C)=O)C(C)(C)C2C[C@@H](O)[C@]3(C)C(CC[C@@]4(C)[C@H](c5ccoc5)OC(=O)[C@H]5O[C@]543)[C@]21C (stereo partly drawn)
Response line: 0.956

Source of measurements: PubChem BioAssay AID1159580
